Catalogue of inhibition values
Molecular target: Protein-arginine deiminase type-3 (Homo sapiens)
Assay: PAD1-4 inhibition by competitive ABPP, late-stage follow-up, orthogonal assay for PAD4 inhibitor project, biochemical, fluorescence, gel-based ABPP, HTS hits (AID 588487)
Settings: recombinant PAD1-4, gel-based ABPP, RFA probe fluorescence; PAD3; at 10 µM; stronger effect = higher value
outcome.measure: inhibition (%)

| compound | quantitative.result |
| --- | --- |
| Cc1nonc1OC(C)CNc1ccc([N+](=O)[O-])cc1 (stereo not drawn) | 38 |
| COc1cccc(C2=CC(c3ccc(OC)c(OC)c3)NC(=S)N2)c1 (stereo not drawn) | -3 |
| O=c1cc(-c2ccc(Cl)c(Cl)c2)[nH][nH]1 | 41 |
| O=c1cc(-c2cccc([N+](=O)[O-])c2)[nH][nH]1 | 5 |
| CCC(=O)Oc1ccc(C(=O)Nc2cccc(C(=O)NC(C)(C)C)c2)cc1 | 40 |
| Cc1ccc(C2CC(=O)Oc3cc(O)ccc32)cc1 (stereo not drawn) | 43 |
| Cc1ccc(CNC(=O)c2ccc(C)c(S(=O)(=O)N3CCCCC3)c2)cc1 | 31 |
| CCN(CC)S(=O)(=O)c1ccc(C)c(NS(=O)(=O)c2cc(/C=C/C(=O)O)cc(OC)c2OC)c1 | 33 |
| COc1cccc(/C=C2/CN(C)CC3=C2OC(N)=C(C#N)C3c2cccc(OC)c2)c1 (stereo not drawn) | 48 |
| Cc1cc(C)c(C#N)c(Sc2ccccc2N)n1 | 5 |
| N#CCCn1[nH]c(-c2ccccc2)cc1=O | 3 |
| Cc1cc(N(C)NC(=S)Nc2ccccc2)nc(C)n1 | 38 |
| CCN(Cc1ccc2c(c1)OCCO2)C(=O)CSc1nc(C)nc2sc(C)c(C)c12 | 24 |
| COCc1cc(C)nc(SCC(=O)Nc2ccc3c(c2)n(C)c(=O)n3C)c1C#N | -43 |
| CN(C)C(CNC(=O)c1cc2ccccc2o1)c1ccco1 (stereo not drawn) | 35 |
| Cc1cc(C)cc(NC(=S)/C(=C(\[O-])c2ccc(Cl)s2)[n+]2cccc(C)c2)c1 | 28 |
| O=C(NC1CCCCC1)C(c1cccs1)N(CCCN1CCOCC1)C(=O)c1ccc(-c2ccccc2)[nH]1 (stereo not drawn) | 15 |
| CC(=O)C1=C(c2ccccc2)N(C(C)=O)n2c(C)nnc2S1 | 32 |
| CCN(CC)S(=O)(=O)c1ccc(N=NC2=C(O)CCCC2=O)cc1 | 6 |
| CC(NC(=O)Nc1ccc(O)cc1)(C(F)(F)F)C(F)(F)F | -29 |
| COc1ccc(/C=C2/C(=O)N(c3ccccc3)N=C2C)cc1 | 35 |
| CC(=O)N(Cc1cc(=O)[nH]c2ccccc12)c1cccc(C)c1 | 39 |
| CC(=O)Nc1c2c3c(cccc3n(C)c1=O)C(=O)c1ccccc1-2 | 32 |
| CCOC(=O)N1CCC(c2cc(=O)n(-c3ccccc3)[nH]2)CC1 | 32 |
| COc1cccc(NC(=O)C2c3cc(OC)c(OC)cc3C(=O)N(C)C2c2cccnc2)c1 (stereo not drawn) | 26 |
| CS(=O)(=O)c1ccc(N)c(SSc2cc(S(C)(=O)=O)ccc2N)c1 | 35 |
| O=c1cc(-c2ccc(Cl)cc2)[nH][nH]1 | -44 |
| O=C(NCC1CCCO1)c1cc2c([nH]c3ccccc32)c(-c2ccc(F)cc2)n1 (stereo not drawn) | -27 |
| CCN(CC)c1cccc(OC2=NS(=O)(=O)c3ccccc32)c1 | 32 |
| CCOc1c(Br)cc(/C=C2\C(=O)N(CCC#N)N=C2C)cc1OC | 15 |
| Cc1ccc(C2=NN=C(NC(=O)CSc3nncn3C)SC2)cc1 | 32 |
| COc1ccc(-c2cc(=O)[nH][nH]2)cc1 | 32 |
| COc1cc(NC2c3ccccc3C(=O)N2Cc2ccccc2Cl)cc(OC)c1 (stereo not drawn) | -3 |
| Cn1c(=O)c2c(ncn2CC(=O)Nc2nc(-c3ccccc3Cl)cs2)n(C)c1=O | -19 |
| Cc1cc2ncn(-c3ncccc3[N+](=O)[O-])c2cc1C | -25 |
| Cc1oc2c(C)c(O)ccc2c(=O)c1-c1ccc2ccccc2n1 | 42 |
| Cc1ccc(-c2nc3sc(C#N)c(N)n3c(=O)c2C#N)cc1 | 31 |
| COc1ccc(-c2noc3c2-c2nc(-c4ccc(Br)cc4)sc2CC3)cc1 | -23 |
